- Test system: IFNα-stimulated Kit225 T cells with STAT-dependent luciferase reporter
- test.method.notes: Kit225 T cell assay, STAT-dependent luciferase reporter, IFNα stimulated
- Format: cell-based, human
- experimental.setup: 200 U/mL human recombinant IFNα, 5-6 hours, read-out: IFNa Kit225 Reporter, LE (IC50)
pIC50: −log10 of the molar value.
readout.kind: pIC50

Consider the following illustrative entries.
> print(dat)
                                    compound  reading
 1  CNc1cc(Nc2cccn(-c3ccn(C)n3)c2=O)nn2c(C(=O)NC3CCC3)cnc12     7.40
 2  CNc1cc(Nc2cccn(-c3ncccn3)c2=O)nn2c(C(=O)NC3CCC3)cnc12     6.89
 3  CNc1cc(Nc2cccn(C)c2=O)nn2c(C(=O)NC(C)C)cnc12     6.48
 4  CNc1cc(Nc2cccn(-c3ncccc3F)c2=O)nn2c(C(=O)N[C@@H]3C[C@@H]3F)cnc12     7.70
 5  CNc1cc(Nc2cccn(-c3nnc(C)s3)c2=O)nn2c(C(=O)N[C@@H]3C[C@@H]3F)cnc12     7.22
 6  CNc1cc(Nc2cncn(-c3ccccn3)c2=O)nn2c(C(=O)NC3CCC3)cnc12     6.92
 7  CNc1cc(Nc2cccn(-c3ncccc3F)c2=O)nn2c(C(=O)NC3CC3)cnc12     7.22
 8  CNc1cc(Nc2cccn(-c3ccncc3)c2=O)nn2c(C(=O)NC3CC3)cnc12     6.62
 9  CNc1cc(Nc2cccn(-c3ccccc3F)c2=O)nn2c(C(=O)NC3(C#N)CC3)cnc12     7.22
10  CNc1cc(Nc2cc(F)cn(-c3ccccn3)c2=O)nn2c(C(=O)NC3CC3)cnc12     7.22

1 = CCC(C)NC(=O)c1cnc2c(NC)cc(Nc3cccn(-c4cccnn4)c3=O)nn12 (centres unmarked)
2 = CCNC(=O)c1cnc2c(NC)cc(Nc3cccn(-c4ccc(C)nn4)c3=O)nn12
Enquiry: // compare measured pIC50 between 1 and 2 ; output the lower one Let me know the label of the one you choose.
Return: 2
(2: 6.64, 1: 7.05)
